Test system: Factor 11 activity
Test: Factor 11 protein activity, F11 assay based on clotting time (Example 45)
Assay type: in vivo, cynomolgus monkeys
Conditions: day 22; escalating dose regimen
Listing of recorded percent inhibition of Factor 11 activity, relative to PBS control by entry.
recorded-metric: percent inhibition of Factor 11 activity, relative to PBS control (%)

[[record]]
substance = "ISIS 416850: MOE gapmer, nucleobases 1275 to 1318 of SEQ ID NO: 1 (Table 8) (antisense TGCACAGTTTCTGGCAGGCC; MOE gapmer, wing and gap sizes not given here)"
measured_number = 11

[[record]]
substance = "ISIS 416864: MOE gapmer, nucleobases 1275 to 1318 of SEQ ID NO: 1 (Table 8) (antisense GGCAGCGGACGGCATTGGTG; MOE gapmer, wing and gap sizes not given here)"
measured_number = 7

